Reported values of AUC for individual entries
Assay: Pharmacokinetic evaluation in mice after intragastric administration
Format: in vivo, mouse
Settings: po; male ICR mouse, 10 mg·kg−1 intragastrically, single dose, fasted, plasma; read-out: AUC

molecule	AUC / ng·h/mL
CC(C)NC[C@@H](C(=O)N1CCN(c2ncnc3c2[C@H](C)C[C@H]3O)CC1)c1ccc(Cl)cc1 [GDC-0068, reference compound]	320
CC(C)NC[C@@H](C(=O)N1C2CCC1CN(c1ncnc3c1[C@H](C)CC(=O)N3)C2)c1ccc(Cl)cc1	911
CC(C)NC[C@@H](C(=O)N1CCN(c2ncnc3c2[C@H](C)CC(=O)N3)[C@H]2C[C@H]21)c1ccc(Cl)cc1 (single isomer, unassigned) [Example 15 Isomer 2]	2170
CC(C)NC[C@@H](C(=O)N1CCN(c2ncnc3c2[C@H](C)OC(=O)N3)[C@H]2C[C@H]21)c1ccc(Cl)cc1 (single isomer, unassigned) [Example 34 Isomer 4]	2580

====

Target: AKT1 (Homo sapiens, UniProt P31749)
Sequence (P31749 whole entry): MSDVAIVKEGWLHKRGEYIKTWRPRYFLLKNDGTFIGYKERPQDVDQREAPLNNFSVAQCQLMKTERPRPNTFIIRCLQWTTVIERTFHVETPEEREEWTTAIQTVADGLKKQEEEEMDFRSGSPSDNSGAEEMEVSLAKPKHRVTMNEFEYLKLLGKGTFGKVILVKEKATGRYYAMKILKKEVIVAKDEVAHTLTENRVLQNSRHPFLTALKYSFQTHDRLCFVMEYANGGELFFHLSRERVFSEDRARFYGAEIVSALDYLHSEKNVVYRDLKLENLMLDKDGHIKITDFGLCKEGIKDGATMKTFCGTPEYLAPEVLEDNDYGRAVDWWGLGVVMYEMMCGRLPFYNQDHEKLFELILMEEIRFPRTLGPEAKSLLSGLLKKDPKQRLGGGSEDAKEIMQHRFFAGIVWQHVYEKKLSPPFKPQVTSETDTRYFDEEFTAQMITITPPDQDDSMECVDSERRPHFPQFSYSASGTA
Test: In vitro enzyme activity test (HTRF kinEASE TK), AKT1
Format: biochemical
Conditions: ATP 2 μM, enzyme 0.6 ng/well, reaction 50 min
Protocol: Experimental Procedure 2.1 Preparation of Reagents 1 mL 1× Kinase Reaction Buffer of Kinase AKT1, AKT2 and AKT3 contain 200 μL 5× Kinase Reaction Buffer, 5 μL 1 M MgCl2, 1 μL 1 M DTT and 794 μL ultrapure water. […] g) The plate was sealed and mixed well. […] The inhibition rate of each well was calculated through the fully active wells and the background signal wells, taking the average value in case of multiple wells. […]
Where a name gives a salt, the structure may show the parent alone.
Mark satisfied for IC50 under 100 nM, not satisfied if at or over.

compound	assigned category
CC(C)NC[C@@H](C(=O)N1CCN(c2ncnc3c2[C@@H](C)OC(=O)N3)[C@H]2C[C@H]21)c1ccc(Cl)cc1 (single isomer, unassigned) [Example 34 Isomer 3]	not satisfied
CC(C)NC[C@@H](C(=O)N1CC2CCC(C1)N2c1ncnc2c1[C@H](C)OC(=O)N2)c1ccc(Cl)cc1 (single isomer, unassigned) [Example 33 Isomer 1]	satisfied
C[C@@H]1CC(=O)Nc2ncnc(N3CCN(C(=O)C4(c5ccc(Cl)cc5)CCNCC4)CC3)c21 [Example 18, formate]	not satisfied
CC(C)NC[C@@H](C(=O)N1CCN(c2ncnc3c2C(C)OC(=O)N3)CC1)c1ccc(Cl)cc1 (some centres unmarked) [Example 23, formate]	satisfied
CC(C)NC[C@@H](C(=O)N1CCN(c2ncnc3c2[C@H](C)OC(=O)N3)CC1)c1ccc(Cl)cc1 (single isomer, unassigned) [Example 24 Isomer 1]	not satisfied
CC(C)NC[C@@H](C(=O)N1CCN(c2ncnc3c2C[C@H](C)C(=O)N3)CC1)c1ccc(Cl)cc1 (single isomer, unassigned) [Example 19 Isomer 2]	satisfied
CC(C)NC[C@@H](C(=O)N1CC2CCC(C1)N2c1ncnc2c1[C@H](C)CC(=O)N2)c1ccc(Cl)cc1	satisfied
CC(C)NC[C@@H](C(=O)N1CCN(c2ncnc3c2[C@@H](C)OC(=O)N3)[C@@H]2C[C@@H]21)c1ccc(Cl)cc1 (single isomer, unassigned) [Example 34 Isomer 2]	not satisfied
CC(C)NC[C@@H](C(=O)N1CCN(c2ncnc3c2N(C)CC(=O)N3)[C@H]2C[C@H]21)c1ccc(Cl)cc1 (single isomer, unassigned) [Example 27 Isomer 1]	satisfied
CC(C)NC[C@@H](C(=O)N1CCN(c2ncnc3c2[C@H](C)CC(=O)N3)CC1)c1ccc(Cl)cc1 [Example 2 (R) Configur- ation product]	satisfied
CC(C)NC[C@@H](C(=O)N1C2CCC1CN(c1ncnc3c1[C@H](C)OC(=O)N3)C2)c1ccc(Cl)cc1 (single isomer, unassigned) [Example 32 Isomer 1]	satisfied
CC(C)NC[C@@H](C(=O)N1CCN(c2ncnc3c2[C@H](C)CC(=O)N3)CC12CC2)c1ccc(Cl)cc1	satisfied
CC(C)NC[C@@H](C(=O)N1C2CCC1CN(c1ncnc3c1[C@@H]1C[C@@H]1C(=O)N3)C2)c1ccc(Cl)cc1 (single isomer, unassigned) [Example 39 Isomer 1]	satisfied
CC(C)NC[C@@H](C(=O)N1CCN(c2ncnc3c2[C@@H](C(F)(F)F)CC(=O)N3)CC1)c1ccc(Cl)cc1 (single isomer, unassigned) [Example 16 Isomer 1]	not satisfied
CC(C)NC[C@@H](C(=O)N1C2CCC1CN(c1ncnc3c1[C@@H](C)OC(=O)N3)C2)c1ccc(Cl)cc1 (single isomer, unassigned) [Example 32 Isomer 2]	satisfied
CC(C)NC[C@@H](C(=O)N1CC2CCC(C1)N2c1ncnc2c1[C@@H](C(F)(F)F)CC(=O)N2)c1ccc(Cl)cc1 (single isomer, unassigned) [Example 25 Isomer 1]	not satisfied
CC(C)NC[C@@H](C(=O)N1CCN(c2ncnc3c2[C@H]2C[C@H]2C(=O)N3)CC1)c1ccc(Cl)cc1 (single isomer, unassigned) [Example 40 Isomer 2]	satisfied
CCN1CC(=O)Nc2ncnc(N3CC4CCC(C3)N4C(=O)[C@H](CNC(C)C)c3ccc(Cl)cc3)c21	satisfied
CC(C)NC[C@@H](C(=O)N1CCN(c2ncnc3c2[C@H](C)CC(=O)N3)C[C@H]1C)c1ccc(Cl)cc1	satisfied
CC(C)NC[C@@H](C(=O)N1CCN(c2ncnc3c2N(C)CC(=O)N3)[C@@H]2C[C@@H]21)c1ccc(Cl)cc1 (single isomer, unassigned) [Example 27 Isomer 2]	not satisfied
CC(C)NC[C@@H](C(=O)N1CC2CCC(C1)N2c1ncnc2c1[C@H](C(F)(F)F)CC(=O)N2)c1ccc(Cl)cc1 (single isomer, unassigned) [Example 25 Isomer 2]	satisfied
CC(C)NC[C@@H](C(=O)N1CCN(c2ncnc3c2[C@H](C)CC(=O)N3)[C@H](C)C1)c1ccc(Cl)cc1	satisfied
CC(C)NC[C@@H](C(=O)N1CCN(c2ncnc3c2N(C)CC(=O)N3)CC1)c1ccc(Cl)cc1 [Example 20, hydrochloride]	satisfied

====

Test: Pharmacokinetic evaluation in mice after intragastric administration
Format: in vivo, mouse
Settings: male, ICR, mouse, in vivo, po, 10 mg/kg
Structures can show the parent of a compound that is named as a salt.
readout: Tmax

> print(dat)
                                   molecule  result
1  CC(C)NC[C@@H](C(=O)N1C2CCC1CN(c1ncnc3c1N(C)CC(=O)N3)C2)c1ccc(Cl)cc1 [Example 21, formate]     1 h

====

Molecular target: UniProtKB Q9Y243
Sequence (Q9Y243 whole entry): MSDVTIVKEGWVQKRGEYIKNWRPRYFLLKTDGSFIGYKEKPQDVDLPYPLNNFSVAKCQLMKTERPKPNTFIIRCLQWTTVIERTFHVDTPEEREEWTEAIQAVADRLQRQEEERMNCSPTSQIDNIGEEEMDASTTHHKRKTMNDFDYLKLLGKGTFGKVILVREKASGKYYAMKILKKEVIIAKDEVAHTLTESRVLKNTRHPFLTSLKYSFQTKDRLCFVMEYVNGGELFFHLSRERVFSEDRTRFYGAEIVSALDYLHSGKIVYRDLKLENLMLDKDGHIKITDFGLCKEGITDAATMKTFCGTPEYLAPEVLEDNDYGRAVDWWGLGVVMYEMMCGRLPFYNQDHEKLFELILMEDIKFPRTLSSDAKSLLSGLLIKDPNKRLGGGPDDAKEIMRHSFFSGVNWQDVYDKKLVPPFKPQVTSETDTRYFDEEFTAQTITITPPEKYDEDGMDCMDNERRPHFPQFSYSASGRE
Where a name gives a salt, the structure may show the parent alone.

compound	IC50 / nM
CC(C)NC[C@@H](C(=O)N1C2CCC1CN(c1ncnc3c1[C@H](C(F)(F)F)CC(=O)N3)C2)c1ccc(Cl)cc1 (single isomer, unassigned) [Example 24 Isomer 2]	19
CC(C)NC[C@@H](C(=O)N1CCN(c2ncnc3c2[C@@H](C)OC(=O)N3)CC1)c1ccc(Cl)cc1 (single isomer, unassigned) [Example 23 Isomer 2]	42
CC(C)NC[C@@H](C(=O)N1CCN(c2ncnc3c2N(C)CC(=O)N3)[C@H]2C[C@H]21)c1ccc(Cl)cc1 (single isomer, unassigned) [Example 27 Isomer 1]	0.48
CC(C)NC[C@@H](C(=O)N1CCN(c2ncnc3c2CC(C)C(=O)N3)CC1)c1ccc(Cl)cc1 (stereo partly drawn) [Example 19, hydrochloride]	7.4
CC(C)NC[C@@H](C(=O)N1C2CCC1CN(c1ncnc3c1N(C)CC(=O)N3)C2)c1ccc(Cl)cc1 [Example 21, formate]	0.2
CC(C)NC[C@@H](C(=O)N1CCN(c2ncnc3c2[C@H](C)CC(=O)N3)CC12CC2)c1ccc(Cl)cc1 [Example 12]	4.8
CC(C)NC[C@@H](C(=O)N1CCN(c2ncnc3c2[C@H](C)CC(=O)N3)CC1)c1ccc(Cl)cc1 [Example 2 (R) Configur- ation product]	0.4
CC(C)NC[C@@H](C(=O)N1CC2CCC(C1)N2c1ncnc2c1[C@H](C(F)(F)F)CC(=O)N2)c1ccc(Cl)cc1 (single isomer, unassigned) [Example 25 Isomer 2]	0.19
CC(C)NC[C@@H](C(=O)N1CCN(c2ncnc3c2N(C)CC(=O)N3)C[C@@H]1C)c1ccc(Cl)cc1 [Example 22]	0.56
CC(C)NC[C@@H](C(=O)N1CCN(c2ncnc3c2[C@H]2C[C@H]2C(=O)N3)CC1)c1ccc(Cl)cc1 (single isomer, unassigned) [Example 40 Isomer 2]	61
CC(C)NC[C@@H](C(=O)N1CCN(c2ncnc3c2N(C)CC(=O)N3)[C@@H]2C[C@@H]21)c1ccc(Cl)cc1 (single isomer, unassigned) [Example 27 Isomer 2]	7.4
CC(C)NC[C@@H](C(=O)N1CCN(c2ncnc3c2C[C@H](C)C(=O)N3)CC1)c1ccc(Cl)cc1 (single isomer, unassigned) [Example 19 Isomer 2]	9.1

====

Experiment: Pharmacokinetic evaluation in mice after intragastric administration
Assay type: in vivo, mouse
Conditions: po; male ICR mouse, 10 mg·kg−1 intragastrically, single dose, fasted, plasma; read-out: Cmax

molecule	Cmax, ng/mL
CC(C)NC[C@@H](C(=O)N1C2CCC1CN(c1ncnc3c1[C@H](C)CC(=O)N3)C2)c1ccc(Cl)cc1	321
CC(C)NC[C@@H](C(=O)N1CCN(c2ncnc3c2[C@H](C)OC(=O)N3)[C@H]2C[C@H]21)c1ccc(Cl)cc1 (single isomer, unassigned) [Example 34 Isomer 4]	497
CC(C)NC[C@@H](C(=O)N1CCN(c2ncnc3c2[C@H](C)CC(=O)N3)[C@H]2C[C@H]21)c1ccc(Cl)cc1 (single isomer, unassigned) [Example 15 Isomer 2]	583
CC(C)NC[C@@H](C(=O)N1CCN(c2ncnc3c2[C@H](C)C[C@H]3O)CC1)c1ccc(Cl)cc1 [GDC-0068, reference compound]	75.3
